- System: MKN-74
- EXPERIMENT NOTES: Growth inhibition of human MKN-74 cells measured after 48 hrs by sulforhodamine B assay
- Format: functional
PROPERTY LABEL: GI50 (µM)
Numeric only. Scale: µM

Request: Observed GI50 on MKN-74 for O=c1c(-c2ccc(O)cc2)coc2cc(O)cc(O)c12 , please.
Response: 36.3

Request: Observed GI50 on MKN-74 for COc1cc([C@@H]2c3cc4c(cc3[C@@H](O[C@@H]3O[C@@H]5CO[C@@H](C)O[C@H]5[C@H](O)[C@H]3O)[C@H]3COC(=O)[C@H]23)OCO4)cc(OC)c1O [ETOPOSIDE] , please.
Response: 49

Request: Observed GI50 on MKN-74 for CC(C)(O)[C@@H]1Cc2c(cc(O)c3c(=O)c(-c4ccc(O)cc4)coc23)O1 , please.
Response: 6.92

* * *

- EXPERIMENT NOTES: Growth inhibition of human HBC4 cells measured after 48 hrs by sulforhodamine B assay
- Type: functional
PROPERTY LABEL: GI50 (µM)
Numeric only. Scale: µM

Request: For the compound shown here, O=c1c(-c2ccc(O)cc2)coc2cc(O)cc(O)c12 [GENISTEIN] , give the reported GI50.
Response: 43.7

Request: For the compound shown here, COc1cc([C@@H]2c3cc4c(cc3[C@@H](O[C@@H]3O[C@@H]5CO[C@@H](C)O[C@H]5[C@H](O)[C@H]3O)[C@H]3COC(=O)[C@H]23)OCO4)cc(OC)c1O [ETOPOSIDE] , give the reported GI50.
Response: 16.6

Request: For the compound shown here, CC(C)(O)[C@@H]1Cc2c(cc(O)c3c(=O)c(-c4ccc(O)cc4)coc23)O1 , give the reported GI50.
Response: 1.74
